test: qHTS RealTime-Glo MT Cell Viability Assay in HepG2 cells - 24 hour (AID 1224867); settings: RealTime-Glo luminescence; series mostly up to 76.8 µM; further: nearly all actives have a fitted effect of over 50% in size
Inconclusive results are not listed. Calls of active or inactive are those of the source. The call rests on the fitted dose curve; in most records, active means well fitted cell-killing curve with a large enough effect in the repeat runs; inconclusive means weak or mixed curves; inactive means flat fitted curve, though single readings scatter.
Labels: YES (active), NO (inactive)

O=C(CBr)Nc1ccc(Cl)cc1C(=O)c1ccccc1F :: NO
CC(=O)CCC(C)=O :: NO
Clc1ccc(C2(Cn3cncn3)CC(Br)CO2)c(Cl)c1 (stereo not drawn) :: NO
CC(=O)c1cc2c(cc1C)C(C)(C)C(C)CC2(C)C (stereo not drawn) :: NO
CCCCc1c(C)nc(NCC)nc1OS(=O)(=O)N(C)C :: NO
COP(=O)(OC)O/C(=C/Cl)c1cc(Cl)c(Cl)cc1Cl :: NO
Oc1ccc(Cl)c(Cl)c1Cl :: NO
Nc1nc(=S)[nH][nH]1 :: NO
CC(C)(C)C(O)C(Oc1ccc(Cl)cc1)n1cncn1 (stereo not drawn) :: NO
O=C1C(Cl)C(CCl)CN1c1cccc(C(F)(F)F)c1 (stereo not drawn) :: NO
ClCc1cccc(Cl)c1 :: NO
N#Cc1ccc(Cl)cc1 :: NO
CNP(=O)(OC)Oc1ccc(C(C)(C)C)cc1Cl (stereo not drawn) :: NO
O=NN1CCNCC1 :: NO
N#CCc1ccccc1 :: NO
CCOc1nc(F)cc2nc(S(=O)(=O)Nc3c(Cl)cccc3Cl)nn12 :: NO
Cc1ccc(-c2c(Cl)nc(C#N)n2S(=O)(=O)N(C)C)cc1 :: NO
CCOC(=O)C(Cl)C(C)=O (stereo not drawn) :: NO
CN(C)c1ccc(N(C)C)cc1 :: NO
CC(C)N(CCC(C(N)=O)(c1ccccc1)c1ccccn1)C(C)C (stereo not drawn) :: NO
CCC(C)(NC(=O)c1cc(Cl)c(C)c(Cl)c1)C(=O)CCl (stereo not drawn) :: YES
O=C1C(=O)c2cccc3cccc1c23 :: NO
CCOC(=O)COc1cc(-c2nn(C)c(OC(F)F)c2Cl)c(F)cc1Cl :: NO
CCN(C)N=O :: NO
CC1(C)[C@H](C=C(Cl)Cl)[C@@H]1C(=O)O[C@@H](C#N)c1cccc(Oc2ccccc2)c1 :: NO
COc1cc(Cl)c(OC)cc1Cl :: NO
C=CCC1([C@H](C)CCC)C(=O)NC(=O)NC1=O :: NO
Nc1ccc(N=Nc2ccc(-c3ccc(N=Nc4c(S(=O)(=O)O)cc5cc(S(=O)(=O)O)c(N=Nc6ccccc6)c(O)c5c4N)cc3)cc2)c(N)c1 :: NO
